studyTarget: T1, Annexin A1 (Homo sapiens, UniProt P04083)
T1 chain: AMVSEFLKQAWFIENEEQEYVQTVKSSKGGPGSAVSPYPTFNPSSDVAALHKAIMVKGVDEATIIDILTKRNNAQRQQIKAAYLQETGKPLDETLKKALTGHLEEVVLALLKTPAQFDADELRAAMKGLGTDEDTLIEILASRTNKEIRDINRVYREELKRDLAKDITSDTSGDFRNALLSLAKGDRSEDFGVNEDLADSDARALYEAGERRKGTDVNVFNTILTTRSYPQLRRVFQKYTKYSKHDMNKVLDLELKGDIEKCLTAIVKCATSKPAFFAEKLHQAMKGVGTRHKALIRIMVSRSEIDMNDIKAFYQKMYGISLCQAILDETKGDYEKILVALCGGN
assayMethodText: QCM
pKd: −log10 of the molar value.
quantityKind: pKd

>>> numericreadout("IFLLWQRCRR [IF7C(RR) peptide]")
7.22
